Each entry below carries its reported IC50.
System: PC-3
Experiment: Cytotoxicity against apoptotic-sensitive human PC3 cells assessed as growth inhibition after 72 hrs by MTT-based colorimetric assay
Format: functional, cell-based
Conditions: Homo sapiens, PC-3, 72 h
Hi! Could you send only the number? It should be in µM, unit omitted.

The compound listed as C=CCCCCOc1ncc(-c2ccc(Cl)cc2OC)n1C has a reported IC50 of 36

The compound listed as Cn1c2cnc1OCCCCCCCCOc1cc(F)ccc1-2 has a reported IC50 of 46

The compound listed as COc1ccccc1-c1cnc(OCC(F)(F)C(F)(F)C(F)(F)C(F)(F)C(F)(F)F)n1C has a reported IC50 of 72

The compound listed as C=CCCCCOc1ccccc1-c1cnc(OC)n1C has a reported IC50 of 86

The compound listed as C=CCCCCOc1ccccc1-c1cnc(OCCCCC=C)n1C has a reported IC50 of 9

The compound listed as C=CCCCCOc1ccccc1-c1cnc(OCCCC=C)n1C has a reported IC50 of 28

The compound listed as C=CCCCCOc1ccccc1-c1cnc(NC(=O)CCCC=C)n1C has a reported IC50 of 11

The compound listed as C=CCCCCOc1ccc(F)cc1-c1cnc(OCCC=C)n1C has a reported IC50 of 52

The compound listed as Cn1c2cnc1OCCCCCCCCCCOc1ccccc1-2 has a reported IC50 of 31

The compound listed as CCCCCCOc1ncc(-c2ccccc2OC)n1C has a reported IC50 of 33

# credit: ChEMBL document CHEMBL3091366
